Endpoint: log10(Ki). System: Estrogen receptor beta (Homo sapiens). Items follow.
Sequence (Q92731 whole entry): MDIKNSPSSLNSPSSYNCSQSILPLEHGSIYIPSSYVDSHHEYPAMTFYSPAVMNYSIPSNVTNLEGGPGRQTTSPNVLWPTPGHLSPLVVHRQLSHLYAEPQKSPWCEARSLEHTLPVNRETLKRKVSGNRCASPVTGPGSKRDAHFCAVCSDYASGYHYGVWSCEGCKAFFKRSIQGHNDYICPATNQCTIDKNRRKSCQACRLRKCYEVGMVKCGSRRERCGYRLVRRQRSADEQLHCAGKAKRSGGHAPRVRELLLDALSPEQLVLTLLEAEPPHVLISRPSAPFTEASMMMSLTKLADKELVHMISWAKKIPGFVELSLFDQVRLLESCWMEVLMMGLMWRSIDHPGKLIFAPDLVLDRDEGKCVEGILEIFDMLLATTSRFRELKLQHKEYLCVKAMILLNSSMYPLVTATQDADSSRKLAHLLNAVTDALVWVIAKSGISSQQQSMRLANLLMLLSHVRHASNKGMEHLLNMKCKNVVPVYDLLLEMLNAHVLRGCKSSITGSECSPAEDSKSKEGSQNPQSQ
Values are log10 of Ki in nM.

Incoming: # query: log10(Ki) of entry CN(CCCc1ccc(Cl)cc1)c1nc(NCCc2ccc(O)cc2)nc(N2CCN(C3CCCC3)CC2)n1
Outgoing: 1.60

Incoming: Data request, read-out log10(Ki), for CN(CCCc1ccc(F)cc1)c1nc(NCCc2ccc(O)cc2)nc(N2CCNCC2)n1
Outgoing: 1.18

Incoming: Look up log10(Ki): CN(CCCc1ccc(Cl)cc1)c1nc(NCCc2ccc(O)cc2)nc(N2CCN(Cc3ccncc3)CC2)n1
Outgoing: 2.06

Incoming: Which log10(Ki) value is on record for CN(CCCc1ccc(Cl)cc1)c1nc(NCCc2ccc(O)cc2)nc(N2CCN(c3ccccc3)CC2)n1 ?
Outgoing: 2.95

Incoming: Data request, read-out log10(Ki), for CN(CCCc1ccc(Cl)cc1Cl)c1nc(NCCc2ccc(O)cc2)nc(N2CCNCC2)n1
Outgoing: 1.40

Incoming: Record request: log10(Ki) value, item C[C@@H]1CN(c2nc(NCCc3ccc(O)cc3)nc(N(C)CCCc3ccc(Cl)cc3)n2)C[C@H](C)N1
Outgoing: 1.18

Incoming: So what's the measured log10(Ki) for this one? CN(CCCc1ccc(Cl)cc1)c1nc(NCCc2ccc(O)cc2)nc(N2CCN(C(=O)COc3ccccc3)CC2)n1
Outgoing: 2.00

Incoming: Any idea what log10(Ki) was measured for CN(CCCc1ccc(Cl)cc1)c1nc(NCCc2ccc(O)cc2)nc(N2CCN(Cc3ccccc3)CC2)n1 ?
Outgoing: 0.90

Incoming: Field request: log10(Ki) | item: CN1CCN(c2nc(NCCCCc3ccccc3)nc(NCCc3ccc(O)cc3)n2)CC1
Outgoing: 2.69

Incoming: GET /values?readout=log10(Ki)&item= CN(CCCc1ccc(Cl)cc1)c1nc(NCCc2ccc(O)cc2)nc(N2CCN(CCO)CC2)n1
Outgoing: 1.18

Incoming: Can you share its log10(Ki)? I mean this molecule: CN(C)C(=O)CN1CCN(c2nc(NCCc3ccc(O)cc3)nc(N(C)CCCc3ccc(Cl)cc3)n2)CC1
Outgoing: 2.43

Incoming: Could you share which log10(Ki) value was measured for CN1CCN(c2nc(NCCCc3ccccc3)nc(NC3CCc4cc(O)ccc4C3)n2)CC1 (stereo not given) ?
Outgoing: 2.23

Incoming: Recorded log10(Ki) for CN1CCN(c2nc(NCCc3ccc(O)cc3)nc(SCCCc3ccccc3)n2)CC1 , please?
Outgoing: 1.70

Incoming: Tell me the measured log10(Ki) of Oc1ccc(CCNc2nc(SCCOc3ccc(Cl)cc3)nc(N3CCNCC3)n2)cc1 , please.
Outgoing: 1.95

Incoming: log10(Ki) lookup needed for CN(CCCc1ccc(Cl)cc1)c1nc(NCCc2ccc(O)cc2)nc(N2CCN(Cc3cccnc3)CC2)n1 , thanks.
Outgoing: 1.54

Incoming: Reported log10(Ki) for Oc1ccc(CCNc2nc(NCCCc3ccc(Cl)cc3)nc(N3CCNCC3)n2)cc1 : what is it?
Outgoing: 1.74

Incoming: Which log10(Ki) value is on record for Cc1ccc(CCCN(C)c2nc(NCCc3ccc(O)cc3)nc(N3CCNCC3)n2)cc1 ?
Outgoing: 2.00

Incoming: Would you kindly share the measured log10(Ki) for Oc1ccc(CCNc2nc(NCCc3ccccc3)nc(N3CCNCC3)n2)cc1 ?
Outgoing: 3.24

Incoming: Consider the molecule shown here: CC(C)S(=O)(=O)N1CCN(c2nc(NCCc3ccc(O)cc3)nc(N(C)CCCc3ccc(Cl)cc3)n2)CC1 What is its recorded log10(Ki)?
Outgoing: 2.78

Incoming: Quick check: log10(Ki) of CN(CCOc1ccc(Cl)cc1)c1nc(NCCc2ccc(O)cc2)nc(N2CCNCC2)n1 ?
Outgoing: 2.23

Incoming: May I ask what log10(Ki) has been recorded for CN(CCCc1ccc(Cl)cc1)c1nc(NCCc2ccc(O)cc2)nc(N2CCN(Cc3ccccn3)CC2)n1 ?
Outgoing: 1.70

Incoming: Which log10(Ki) value is on record for Cc1nc(CN2CCN(c3nc(NCCc4ccc(O)cc4)nc(N(C)CCCc4ccc(Cl)cc4)n3)CC2)cs1 ?
Outgoing: 1.40

Incoming: Param item = CN(CCCc1ccc(F)c(F)c1)c1nc(NCCc2ccc(O)cc2)nc(N2CCNCC2)n1 ; retrieve measured log10(Ki).
Outgoing: 1.30
